src = paper PMC6949951

ASSAYED_TARGET: α-Glucosidase (E.C.3.2.1.20) enzyme (Saccharomyces cerevisiae) (Saccharomyces cerevisiae, UniProt P53341)
Sequence (P53341 whole entry): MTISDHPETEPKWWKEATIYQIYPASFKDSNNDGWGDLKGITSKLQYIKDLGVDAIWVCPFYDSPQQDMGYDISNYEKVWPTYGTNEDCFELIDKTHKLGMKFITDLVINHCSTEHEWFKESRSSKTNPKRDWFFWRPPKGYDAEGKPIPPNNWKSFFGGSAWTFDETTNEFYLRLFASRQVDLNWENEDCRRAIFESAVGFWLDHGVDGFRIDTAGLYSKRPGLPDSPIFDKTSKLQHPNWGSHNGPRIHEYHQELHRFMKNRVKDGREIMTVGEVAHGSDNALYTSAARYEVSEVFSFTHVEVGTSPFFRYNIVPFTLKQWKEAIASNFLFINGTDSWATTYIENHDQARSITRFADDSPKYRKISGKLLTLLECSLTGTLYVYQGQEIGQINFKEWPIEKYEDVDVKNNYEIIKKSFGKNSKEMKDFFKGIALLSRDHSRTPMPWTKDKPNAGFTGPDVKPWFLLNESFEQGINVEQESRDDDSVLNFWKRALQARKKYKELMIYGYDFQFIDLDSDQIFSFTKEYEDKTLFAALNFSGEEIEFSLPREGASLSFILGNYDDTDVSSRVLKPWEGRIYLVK
TEST_PROTOCOL: biochemical
Assay type: biochemical
REPORTED_ENDPOINT: pIC50
To interpret pIC50, take it as minus log10 of a concentration measured in moles per litre.

Determine from records and report pIC50 for CCOC(=O)c1ccc(C(=O)OCC)c(Br)c1 [Compound 2, Diethyl 2-bromobenzene 1,4-dioate]
3.63

###

ASSAYED_TARGET: α-Glucosidase (E.C.3.2.1.20) enzyme (Saccharomyces cerevisiae) (Saccharomyces cerevisiae, UniProt P53341)
TEST_PROTOCOL: biochemical
Format: biochemical
EXPERIMENTAL_CONTEXT: α-Glucosidase inhibitory activity IC50, tested up to 1.0 mM; PBS pH 6.8, 37 °C; NA = not active
REPORTED_ENDPOINT: pIC50
To interpret pIC50, take it as minus log10 of a concentration measured in moles per litre.

COMPOUND	pIC50
CCCCCCCCC=CCCCCCCCCCC(=O)O [Compound 8, 11-Eicosenoic acid]	3.32

Determine from records and report pIC50 for C/C=C(\CC[C@@H](C)[C@H]1CC[C@H]2[C@@H]3CC=C4C[C@@H](O)CC[C@]4(C)[C@H]3CC[C@]12C)C(C)C [Compound 3, Fucosterol]
3.54
